# Experimental Protocol: NCI Yeast Anticancer Drug Screen. Data for the mec2-1 strain (AID 157)
# Condition Notes: S. cerevisiae mec2-1 strain, at 50.0 µM
Compounds without any hit were thinned out: in the full panel of roughly 79,000, 15% have a hit. Active and inactive are the calls of the source. No stated cut-off is given here; in the data, active means growth inhibition above about 70%; inactive means the rest.
Classes used: active, inactive

{"columns": ["Compound", "Answer Label"],
 "data": [
  ["O=C1C(Br)CCC1(c1ccccc1)c1ccccc1 (stereo unspecified)", "active"],
  ["OC1(c2ccccc2)CCN(c2c3ccccc3nc3ccccc23)CC1", "active"],
  ["O=C(O)c1ccc(CSc2ccc(Cl)cc2)cc1", "inactive"],
  ["c1ccc2c(CCc3ccncc3)cccc2c1", "active"],
  ["C/C(=N/NC(=S)Nc1ccc([N+](=O)[O-])cc1)c1cccc(/C(C)=N\\NC(=S)Nc2ccc([N+](=O)[O-])cc2)n1", "inactive"],
  ["CC12C=CC(=O)C=C1CCC1C3CCC(O)(C(=O)CO)C3(C)CC(O)C12F (stereo unspecified)", "inactive"],
  ["CCOC(=O)C1=C(N)N(S(=O)(=O)c2ccc(C)cc2)CCC(C(=O)OC)=C1", "inactive"],
  ["CC1=NOC(=O)/C1=C/c1ccc(Cl)c(Cl)c1", "inactive"],
  ["COc1ccc(-c2cn(-c3ccccc3)c3ncnc(N)c23)cc1", "inactive"],
  ["O=S(=O)(OCC#CCOS(=O)(=O)c1ccc(Cl)c(Cl)c1)c1ccc(Cl)c(Cl)c1", "inactive"],
  ["O=S(=O)(/C=C/c1cccnc1)/C=C/c1cccnc1", "inactive"]
]}
